Biological target: T1, human MCH receptor (membranes from a stable CHO or HEK-293 cell line) (human, UniProt Q99705 1-353)
T1 construct: whole, on cells; also called cloned human MCH receptor (CHO clone)
T1 sequence (Q99705 whole entry): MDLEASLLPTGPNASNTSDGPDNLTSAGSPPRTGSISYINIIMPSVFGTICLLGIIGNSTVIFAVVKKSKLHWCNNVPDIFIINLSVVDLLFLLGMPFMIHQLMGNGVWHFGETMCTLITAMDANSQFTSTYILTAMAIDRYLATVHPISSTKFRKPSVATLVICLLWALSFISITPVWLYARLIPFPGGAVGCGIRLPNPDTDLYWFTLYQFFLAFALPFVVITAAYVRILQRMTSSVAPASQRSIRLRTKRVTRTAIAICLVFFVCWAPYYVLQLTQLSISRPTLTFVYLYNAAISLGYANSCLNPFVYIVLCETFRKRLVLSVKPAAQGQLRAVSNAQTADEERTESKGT
Assay: competition vs [125I]-human MCH (Phe13,Tyr19); human MCH receptor cell membranes (Example 3)
pIC50: −log10 of the molar value. Bridges are numbered along the chain shown (N, C = ends). [ ]: non-standard residue; d: D form. Ava = NCCCCC(=O)O
Outcome label depends on pIC50 relative to 8: at/above gives criterion met, below gives criterion not met.

Here are 3 binders together with their reported answers.
- binder: "Ac-[dR]CM[Ava][Ava]RVYRPC-NH2 (disulfide 2-11; not fully specified, ID; NO; 7 peptide; MCH position numbering) [MCH analog SEQ. ID. NO. 71 (D-Arg^6,Ava^9,10)]"
  label: "criterion met"
- binder: "Ac-RCM[Ava][Ava]RVYRPC-NH2 (disulfide 2-11; not fully specified, ID; NO; 7 peptide; MCH position numbering) [MCH analog SEQ. ID. NO. 70 (Ava^9,10)]"
  label: "criterion met"
- binder: "RCXLGRVYRPC (norleucine at position 8; N-terminal acetyl, C-terminal amide, Cys-Cys disulfide as in SEQ. ID. NO. 7, ID; NO; 7 peptide; MCH position numbering) [MCH analog SEQ. ID. NO. 77 (Nle^8)]"
  label: "criterion met"

hey, is pIC50 for this one >= 8? Ac-RCMLGRVYRPC-NH2 (disulfide 2-11 (inferred), Corresponds to MCH positions 6-16; also called ID; NO; 7 MCH analog) [truncated MCH analog SEQ. ID. NO. 7: Ac-Arg-Cys-Met-Leu-Gly-Arg-Val-Tyr-Arg-Pro-Cys-amide] criterion met

hey, is pIC50 for this one >= 8? RCMLXRVYXXC (not fully specified; D-Pro^10; Ava (5-aminopentanoic acid) in place of positions 14,15; N-terminal acetyl, C-terminal amide, Cys-Cys disulfide as in SEQ. ID. NO. 7, ID; NO; 7 peptide; MCH position numbering) [MCH analog SEQ. ID. NO. 74 (D-Pro^10,Ava^14,15)] criterion not met
